MEASURED METRIC: melting point

COc1ccc(/C=C/C(=O)c2ccc3c(c2)nc(-c2cc(OC)c(OC)c(OC)c2)n3C)cc1OC
137 to 139 °C
COc1ccc(/C=C/C(=O)c2ccc3c(c2)nc(-c2ccc(OC)c(OC)c2)n3C)cc1
98 to 100 °C
COc1ccc(-c2nc3cc(C(=O)/C=C/c4ccccc4Cl)ccc3n2C)cc1OC
148 to 150 °C
COc1cc(-c2nc3cc(C(=O)/C=C/c4ccc(C)cc4)ccc3n2C)cc(OC)c1OC
168 to 170 °C
COc1cc(-c2nc3cc(C(=O)/C=C/c4ccccc4Cl)ccc3n2C)cc(OC)c1OC
183 to 184 °C

Lab note: next compound to report on.
Prompt: # get_value(readout='melting point', item= `COc1ccc(/C=C/C(=O)c2ccc3c(c2)nc(-c2cc(OC)c(OC)c(OC)c2)n3C)cc1` )
Response: 142 to 144 °C
